Assay: Cytotoxicity against human RWPE1 cells assessed as cell growth inhibition after 48 hrs by MTT assay
Assay type: toxicity, cell-based, RWPE-1
Assay Endpoint: IC50 at 48 h (µM)
Give the number; µM is assumed, so skip it.

Which IC50 at 48 h value belongs to CCN(CC)CCNC(=O)c1c(C)[nH]c(/C=C2\C(=O)Nc3ccc(F)cc32)c1C ? 25.2

Now the same for O=C1Nc2ccc(C(c3ccccc3)c3ccccc3)cc2/C1=C/c1cccc(OCc2cn(Cc3ccccc3)nn2)c1 21.4

###

Assay: Cytotoxicity against human MDA-MB-231 cells assessed as cell growth inhibition after 48 hrs by MTT assay
Format: functional, cell-based
Conditions: MDA-MB-231, 48 h
pIC50: −log10 of the molar value.
Assay Endpoint: pIC50

O=C1Nc2cc(Cl)ccc2/C1=C\c1cccc(OCc2cn(Cc3ccccc3)nn2)c1	< 4.30
CC(=O)c1ccc2c(c1)/C(=C\c1cccc(OCc3cn(Cc4ccccc4)nn3)c1)C(=O)N2	< 4.30
CC(=O)c1ccc2c(c1)/C(=C/c1cccc(OCc3cn(Cc4ccccc4)nn3)c1)C(=O)N2	< 4.30
O=Cc1cccc(OCc2cn(Cc3ccccc3)nn2)c1	< 4.30
O=C1Nc2ccc(Br)cc2/C1=C/c1cccc(OCc2cn(Cc3ccccc3)nn2)c1	< 4.30
O=C1Nc2ccc(C(c3ccccc3)c3ccccc3)cc2/C1=C\c1cccc(OCc2cn(Cc3ccccc3)nn2)c1	< 4.30

Look at this molecule and give its reported pIC50. O=C1Nc2ccc(C(=O)c3ccccc3)cc2/C1=C\c1cccc(OCc2cn(Cc3ccccc3)nn2)c1 < 4.30

What about this molecule? CCN(CC)CCNC(=O)c1c(C)[nH]c(/C=C2\C(=O)Nc3ccc(F)cc32)c1C 5.13

// query: Cc1ccc(C(C#Cc2ccccc2)c2ccc3c(c2)/C(=C/c2cccc(OCc4cn(Cc5ccccc5)nn4)c2)C(=O)N3)cc1 (stereo not given) < 4.30

Queued: O=C1Nc2ccc([N+](=O)[O-])cc2/C1=C\c1cccc(OCc2cn(Cc3ccccc3)nn2)c1 < 4.30

Next molecule: COc1ccc(Cc2ccc3c(c2)/C(=C/c2cccc(OCc4cn(Cc5ccccc5)nn4)c2)C(=O)N3)cc1 4.69

###

Test: Cytotoxicity against human MDA-MB-231 cells assessed as cell growth inhibition after 48 hrs by MTT assay
Assay type: functional, cell-based
Conditions: MDA-MB-231, 48 h
Listed next: entries and their corresponding IC50.

The examples below pair each entry with its known result.
COc1cc(Cn2cc(COc3cccc(/C=C4\C(=O)Nc5ccccc54)c3)nn2)cc(OC)c1	> 50 µM
COc1ccc(Cc2ccc3c(c2)/C(=C\c2cccc(OCc4cn(Cc5ccccc5)nn4)c2)C(=O)N3)cc1	> 50 µM
COc1cc(Cn2cc(COc3cccc(/C=C4/C(=O)Nc5ccccc54)c3)nn2)cc(OC)c1	11.7 µM

Let us move to another entry and its IC50.
Need IC50 of O=C1Nc2ccc(F)cc2/C1=C\c1cccc(OCc2cn(Cc3ccccc3)nn2)c1 , thanks. > 50 µM
